- test method notes: Cytotoxicity against human C8166 cells by MTT assay
- Assay type: cell-based
Simple rule here: CC50 less than 20 µg/mL is class 1, otherwise class 0.

Please check: CC50 for COc1cc2c(c(OC)c1OC)-c1c(cc(OC)c(OC)c1OC)[C@H](OC(C)=O)[C@@H](C)[C@@H](C)C2 [MARLIGNAN I] , strictly under 20 µg/mL or not? class 1

Please check: CC50 for CCO[C@H]1c2cc(OC)c(OC)c(OC)c2-c2c(cc(OC)c(OC)c2OC)C[C@H](C)[C@@H]1C [MARLIGNAN J] , strictly under 20 µg/mL or not? class 1

Please check: CC50 for COc1c(O)cc2c(c1OC)-c1c(cc(O)c(OC)c1OC)[C@H](OC)[C@@H](C)[C@@H](C)C2 [MARLIGNAN F] , strictly under 20 µg/mL or not? class 0

Please check: CC50 for COc1c(O)cc2c(c1OC)-c1c(cc(O)c(OC)c1OC)C(=O)[C@@H](C)[C@@H](C)C2 [MARLIGNAN H] , strictly under 20 µg/mL or not? class 0

Please check: CC50 for COc1c(O)cc2c(c1OC)-c1c(cc(O)c(OC)c1OC)[C@H](O)[C@@H](C)[C@@H](C)C2 [MARLIGNAN D] , strictly under 20 µg/mL or not? class 1

Please check: CC50 for COc1cc2c(c(O)c1OC)-c1c(cc(O)c(OC)c1O)C[C@@H](C)[C@@H](C)C2 [MARLIGNAN B] , strictly under 20 µg/mL or not? class 0

Please check: CC50 for COc1cc2c(c(O)c1O)-c1c(cc(OC)c(OC)c1O)C[C@@H](C)[C@@H](C)C2 [MARLIGNAN C] , strictly under 20 µg/mL or not? class 0

Please check: CC50 for COc1c(O)cc2c(c1OC)-c1c(cc(O)c(OC)c1OC)[C@H](OC(C)=O)[C@@H](C)[C@@H](C)C2 [MARLIGNAN E] , strictly under 20 µg/mL or not? class 1

Please check: CC50 for COc1c(O)cc2c(c1OC)-c1c(cc(O)c(OC)c1OC)[C@H](OC(=O)c1ccccc1)[C@@H](C)[C@@H](C)C2 , strictly under 20 µg/mL or not? class 1

Please check: CC50 for COc1c(O)cc2c(c1OC)-c1c(cc(O)c(OC)c1OC)C[C@](C)(O)[C@@H](C)C2 [MARLIGNAN L] , strictly under 20 µg/mL or not? class 0

Please check: CC50 for COc1c(O)cc2c(c1O)-c1c(cc(O)c(OC)c1OC)C[C@@H](C)[C@@H](C)C2 [MARLIGNAN A] , strictly under 20 µg/mL or not? class 1

Please check: CC50 for COc1cc2c(c(OC)c1OC)-c1c(cc(O)c(OC)c1O)C[C@H](C)[C@@](C)(O)C2 [MARLIGNAN K] , strictly under 20 µg/mL or not? class 1
